tested on: HBV replicon; test: microbe, parasite or virus in culture; type: cell-based; conditions: Hepatitis B virus, HepG2.117
recordedMetric: EC50 (µM)
Write the number in µM without appending the unit.

Q: What reported EC50 corresponds to COc1cc(N[C@H](C(=O)c2c[nH]c3ccc(OC(F)(F)F)cc23)c2ccc(Cl)cc2OC)cc(S(C)(=O)=O)c1 on HBV replicon?
A: 10

###

test system: DENV-2 RL; assay: microbe, parasite or virus in culture; type: cell-based; conditions: Dengue virus, DENV2, Vero, read-out: EC50 values Ave, B sample, passage 50 (END)
recordedMetric: pEC50
In textbook form, pEC50 equals minus log to base ten of the concentration in mol/L.

Q: What does the record list as pEC50 for COc1cc(N[C@H](C(=O)c2c[nH]c3ccc(OC(F)(F)F)cc23)c2ccc(Cl)cc2OC)cc(S(C)(=O)=O)c1 ?
A: 5.89
